# reported kon; entries follow
molecular target: T1, huZIP12-ECD-GST (human, UniProt Q504Y0 24-202); assay: SPR single cycle kinetics (Biacore): mAb captured on protein A, huZIP12-ECD-GST injected at 2.34-600 nM, extended dissociation
T1 construct: also called hZIP12-ECD-GST; human ZIP12-ECD-GST; not shown: glutathione S-transferase (GST) tag
T1 sequence (Q504Y0 24-202): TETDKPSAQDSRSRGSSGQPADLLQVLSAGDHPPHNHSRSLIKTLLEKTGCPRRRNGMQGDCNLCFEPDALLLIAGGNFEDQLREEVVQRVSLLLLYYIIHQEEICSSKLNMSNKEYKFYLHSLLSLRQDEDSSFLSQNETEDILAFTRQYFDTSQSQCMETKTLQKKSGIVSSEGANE
Give the number; M⁻¹ s⁻¹ is assumed, so skip it.

{"binder": "H2_T56H_VL-par (antibody, V domains shown, Fc null human IgG1 / human kappa) VH: QVQLVESGGGVVQPGRSLRLSCAASGFTFSDYGMHWVRQAPGKGLEWVAYISSGGHTIYYADTVKGRFTISRDNSKNTLYLQMNSLRAEDTAVYYCARWTNLYAMDYWGQGTTVTVSS VL: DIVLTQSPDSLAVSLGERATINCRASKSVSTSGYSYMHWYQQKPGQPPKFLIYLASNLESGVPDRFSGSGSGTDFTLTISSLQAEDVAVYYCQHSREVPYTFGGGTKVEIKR", "measurement.type": "kon", "assay.value": 25600}

Below: the item to evaluate.
Summary for this binder, H2_T57H_VL-par (antibody, V domains shown, Fc null human IgG1 / human kappa) VH: QVQLVESGGGVVQPGRSLRLSCAASGFTFSDYGMHWVRQAPGKGLEWVAYISSGGTHIYYADTVKGRFTISRDNSKNTLYLQMNSLRAEDTAVYYCARWTNLYAMDYWGQGTTVTVSS VL: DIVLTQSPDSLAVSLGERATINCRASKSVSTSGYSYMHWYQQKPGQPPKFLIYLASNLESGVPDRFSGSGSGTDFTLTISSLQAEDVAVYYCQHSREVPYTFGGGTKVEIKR : kon is 41600
